Assay: brain exposure of MN-08 in rats
Format: in vivo, SD rats
Settings: both sexes, Sprague-Dawley, rat, brain, oral, 12 mg/kg gastric gavage, 0.5 h, read-out: mean concentration in brain
assay.readout: concentration at 0.5 h
Write the numeric value and append its unit.

Prompt line: State its concentration at 0.5 h for this compound: CCC12CC3CC(N)(C1)CC(CO[N+](=O)[O-])(C3)C2 (stereo not shown)
Response line: 5790 ng/g

----------
Test: brain exposure of MN-08 in rats
Type: in vivo, SD rats
Details: both sexes, Sprague-Dawley, rat, oral, 12 mg/kg, 1 h, assuming 1 g brain tissue is 1 ml, read-out: concentration in the brain
assay.readout: concentration at 1 h

Prompt line: State its concentration at 1 h for this compound: CCC12CC3CC(N)(C1)CC(CO[N+](=O)[O-])(C3)C2 (stereo not shown) [MN‐08]
Response line: ~37.7 µM

----------
Experiment: brain exposure of MN-08 in rats
Type: in vivo, SD rats
Details: both sexes, Sprague-Dawley, rat, plasma, oral, 12 mg/kg gastric gavage, 24 h, read-out: mean concentration in plasma
assay.readout: concentration at 24 h (ng/mL)
Write down the numeric answer in ng/mL and omit the unit.

Prompt line: State its concentration at 24 h for this compound: CCC12CC3CC(N)(C1)CC(CO[N+](=O)[O-])(C3)C2 (stereo not shown)
Response line: 73.4

----------
Assay: brain exposure of MN-08 in rats
Type: in vivo, SD rats
Conditions: both sexes, Sprague-Dawley, rat, brain, oral, 12 mg/kg gastric gavage, 1 h, read-out: mean concentration in brain
assay.readout: concentration at 1 h (ng/g)
Write down the numeric answer in ng/g and omit the unit.

Prompt line: State its concentration at 1 h for this compound: CCC12CC3CC(N)(C1)CC(CO[N+](=O)[O-])(C3)C2 (stereo not shown)
Response line: 11000

----------
Test: pharmacokinetic analysis of MN-08 in rats
Format: in vivo
Settings: both sexes, rat, plasma, po, single intragastric dose 12 mg/kg, read-out: Cmax, peak concentration
assay.readout: Cmax (ng/mL)
Write down the numeric answer in ng/mL and omit the unit.

Prompt line: State its Cmax for this compound: CCC12CC3CC(N)(C1)CC(CO[N+](=O)[O-])(C3)C2 (stereo not shown)
Response line: 399

----------
Assay: pharmacokinetic analysis of MN-08 in rats
Format: in vivo
Conditions: both sexes, rat, plasma, po, single intragastric dose 3 mg/kg, read-out: Tmax, mean time to peak
Procedure: Healthy adult rats were cannulated under anesthesia one day before dosing, then randomly categorized into 3 groups (3 males and 3 females for each group): (1) MN-08 (3 mg/kg) group; (2) MN-08 (12 mg/kg) group; (3) MN-08 (24 mg/kg) group. […] The concentration of MN-08 in blood samples was analyzed by the LC-MS/MS method as previously described (Tian et al., 2016).
assay.readout: Tmax (h)
Write down the numeric answer in h and omit the unit.

Prompt line: State its Tmax for this molecule: CCC12CC3CC(N)(C1)CC(CO[N+](=O)[O-])(C3)C2 (stereo not shown)
Response line: 1.08

----------
Assay: pharmacokinetic analysis of MN-08 in rats
Format: in vivo
Details: both sexes, rat, plasma, po, single intragastric dose 24 mg/kg, read-out: Cmax, peak concentration
assay.readout: Cmax (ng/mL)
Write down the numeric answer in ng/mL and omit the unit.

Prompt line: State its Cmax for this compound: CCC12CC3CC(N)(C1)CC(CO[N+](=O)[O-])(C3)C2 (stereo not shown)
Response line: 674

----------
Assay: pharmacokinetic analysis of MN-08 in rats
Type: in vivo
Settings: both sexes, rat, plasma, po, single intragastric dose 3 mg/kg, read-out: T1/2, mean terminal half-life (converted)
assay.readout: half-life

Prompt line: State its half-life for this compound: CCC12CC3CC(N)(C1)CC(CO[N+](=O)[O-])(C3)C2 (stereo not shown)
Response line: 5.26 h

The measured values listed here are drawn from paper PMC8208785.
